ASSAY_METHOD_TEXT: AP1 Signaling Pathway (AID 357);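 also: ME-180 reporter cells stimulated with EGF at its EC50 level; % is scaled to controls: 0 for no effect and ±100 for the full control effect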
REPORTED_CONDITIONS: ME-180 (cervical carcinoma) AP-1-bla reporter, EGF-induced, beta-lactamase ratio, 5 h; at 17.2 µM (top of the series) unless noted
Results filed as inconclusive are left out. Active and inactive are the calls of the source. Calls follow the shape of the dose curve; as a rule, active = well fitted curve in either direction with a large enough effect (not every such curve was filed as active); inconclusive = small, poorly fitted or top-dose-only effect, or another doubt; inactive = flat fitted curve, though single readings scatter.
Please respond with reported activity change, negative = inhibition for every item in the list.

Below, 5 compounds whose answers are already recorded.
- COMPOUND: "CN1C(=O)C2(N=c3ccccc3=N2)c2ccccc21"
  activity change, negative = inhibition: "15.2% (inactive)"
- COMPOUND: "COC(=O)c1[nH]c2cc(OC)ccc2c1NC(=O)CCN1CCCC(C)(C)C1"
  activity change, negative = inhibition: "-14.5% (inactive)"
- COMPOUND: "OC1CN=C2Sc3ccccc3N2C1 (stereo unspecified)"
  activity change, negative = inhibition: "1.76% (inactive)"
- COMPOUND: "Cc1c(O)c(CN2CCCCC2)cc2c3c(c(=O)oc12)CCC3"
  activity change, negative = inhibition: "6.76% (inactive)"
- COMPOUND: "Cc1cc(C(F)(F)F)c(C#N)c(SCC(=O)NC2CC2)n1"
  activity change, negative = inhibition: "19.7% (inactive)"

Each compound below has a recorded value; state its activity change, negative = inhibition.
1. CCOC(=O)CSc1nc(NC#N)nc(N(CC)CC)n1
2. CC1(C)Cc2c(sc3nc4n(c(=N)c23)CCCCC4)CO1
3. CCC(=O)Nc1ccc(-c2nnc(-c3ccccc3)o2)cc1
4. COc1cc([C@@H]2[C@H]3CNCC=C3C(C#N)=C(N)C2(C#N)C#N)ccc1OC(C)C
5. Cc1cc(Cl)ccc1OCC(=O)OC(C)C(=O)N(C)C (stereo unspecified)
6. CC1(C)Cc2c(c(N3CCOCC3)nc3snc(N)c23)CO1
7. CC1(C)CN(O)CCN1O
8. CC(=O)Nc1ccc(-c2cc3ccccc3o2)cc1

Result:
1. 8.62% (inactive)
2. 19.2% (inactive)
3. 0.816% (inactive)
4. 14% (inactive)
5. 3.68% (inactive)
6. -12.8% (inactive)
7. 29.1% (inactive)
8. -10.3% (inactive)

Each compound below has a recorded value; state its activity change, negative = inhibition.
1. Cc1cccc(CNc2ccnc(-c3ccc(N(C)C)cc3)n2)c1
2. Cc1cc(OCCN2CCOCC2)nc2ccccc12
3. CCN(CC)CCN1C(=O)C(=O)/C(=C(/O)c2ccc(Cl)cc2)C1c1ccncc1 (stereo unspecified)
4. Cc1nc(Nc2ncc3c(n2)CC(C)(C)CC3=O)nc2ccccc12
5. CN(C)CCCN1C(=O)C(=O)/C(=C(/O)c2ccccc2)C1c1ccccn1 (stereo unspecified)
6. c1ccc(N2CCN(c3nc(NCc4ccco4)c4ccccc4n3)CC2)cc1
7. CN1CCN(c2c3c(c(C#N)c4nc5ccccc5n24)CCCC3)CC1
8. CCCc1cc(=O)oc2c(CN3CCCC3)c(O)ccc12

Result:
1: -16% [at 7.69 µM] (inactive); 2: -9.97% (inactive); 3: -3.59% (inactive); 4: -5.98% (inactive); 5: 7% (inactive); 6: -16.8% (inactive); 7: 14.7% (inactive); 8: -13.6% (inactive)

Each compound below has a recorded value; state its activity change, negative = inhibition.
1. Cc1cc(NC(CC(C)C)C(=O)O)nc(Cc2ccccc2)n1 (stereo unspecified)
2. CC(C)CC(C(=O)O)C(C)CC(=O)Nc1ccn(-c2ccccc2)n1 (stereo unspecified)
3. O=C1C(=O)N(CCCn2ccnc2)C(c2ccccn2)/C1=C(/O)c1ccccc1 (stereo unspecified)
4. CCOC(=O)CCNc1n[nH]c(=O)[nH]c1=O
5. COc1ccc(-n2ccc(=O)c3c2CCCC3=O)cc1

Result:
["0.713% (inactive)", "-9.05% (inactive)", "15.8% (inactive)", "7.71% (inactive)", "1.82% (inactive)"]
